- Assayed target: human LPA1 (Homo sapiens, UniProt Q92633)
- Construct: expressed in transfected cells; host or cells: Chinese hamster ovary (CHO) cells
- Sequence (Q92633 whole entry): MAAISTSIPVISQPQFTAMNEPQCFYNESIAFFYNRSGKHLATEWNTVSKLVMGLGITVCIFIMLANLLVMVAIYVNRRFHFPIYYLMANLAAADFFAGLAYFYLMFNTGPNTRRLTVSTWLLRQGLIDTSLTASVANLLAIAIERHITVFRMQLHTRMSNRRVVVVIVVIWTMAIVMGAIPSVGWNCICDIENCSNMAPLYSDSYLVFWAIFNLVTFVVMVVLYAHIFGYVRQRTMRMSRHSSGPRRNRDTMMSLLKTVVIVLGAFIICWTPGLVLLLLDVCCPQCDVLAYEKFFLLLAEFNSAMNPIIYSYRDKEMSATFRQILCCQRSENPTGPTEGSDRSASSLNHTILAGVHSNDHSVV
- Protocol text: LPA1 functional antagonist assay (LPA-induced calcium flux in CHO cells overexpressing human LPA1)
- Type: cell-based
- Measurement setup: read-out: hLPA1 IC50
pIC50: −log10 of the molar value.
Value type: pIC50

Some compounds with recorded pIC50:
Mol	Value type	Observed measurement
COCCCCCOc1nnn(Cc2c(-c3ccc(O[C@H]4CCC[C@H](C(=O)O)C4)c(C)n3)nnn2C)n1	pIC50	6.17
CCc1nc(-c2nnn(C)c2CNc2nc(C(C)(C)C)ns2)ccc1O[C@H]1CCC[C@H](C(=O)O)C1	pIC50	7.18
COc1ccc(-n2nnc(NCc3c(-c4ccc(O[C@H]5CCC[C@H](C(=O)O)C5)c(C)n4)nnn3C)n2)cc1	pIC50	6.29
CCc1nc(-c2nnn(C)c2CNc2nc(C(C)C)ns2)ccc1O[C@H]1CCC[C@H](C(=O)O)C1	pIC50	7.23

P. Cc1nc(-c2nnn(C)c2Cn2nnc(N(C)CC3CC3)n2)ccc1O[C@H]1CCC[C@H](C(=O)O)C1
Q. CCc1nc(-c2nnn(C)c2CNc2nc(C3CCCC3)ns2)ccc1O[C@H]1CCC[C@H](C(=O)O)C1
Q: Lowest pIC50? choose P or Q Your answer should be the label of the entry you select.
Ans: P

1. Cc1nc(-c2nnn(C)c2Cn2nnc(C3CC3)n2)ccc1O[C@H]1CCC[C@H](C(=O)O)C1
2. Cc1nc(-c2nnn(C)c2CNc2nnn(CC(C)C)n2)ccc1O[C@H]1CCC[C@H](C(=O)O)C1
3. CCc1nc(-c2nnn(C)c2CNc2nc(CC(C)C)ns2)ccc1O[C@H]1CCC[C@H](C(=O)O)C1
Q: Ascending by pIC50, please: list the compounds accordingly. Give the labels in the order specified.
Ans: 1, 2, 3

I. Cn1nnc(-c2ncc(O[C@H]3CCC[C@H](C(=O)O)C3)cc2F)c1CNc1noc(CCC2CC2)n1
II. Cc1cccc(-n2nnc(NCc3c(-c4ccc(O[C@H]5CCC[C@H](C(=O)O)C5)c(C)n4)nnn3C)n2)c1
Q: Determine, for I and II , which has the greater value of pIC50. Your answer should be the label of the entry you select.
Ans: II

A. CCCn1nnc(NCc2c(-c3ccc(O[C@H]4CCC[C@H](C(=O)O)C4)c(C)n3)nnn2C)n1
B. Cc1nc(-c2nnn(C)c2CNc2nnn(Cc3ccccc3)n2)ccc1O[C@H]1CCC[C@H](C(=O)O)C1
C. Cc1nc(-c2nnn(C)c2CNc2noc(COCCCCF)n2)ccc1O[C@H]1CCC[C@H](C(=O)O)C1
D. Cc1ccc(-n2nnc(NCc3c(-c4ccc(O[C@H]5CCC[C@H](C(=O)O)C5)c(C)n4)nnn3C)n2)cc1
Q: Rank the 4 compounds: largest pIC50 first, smallest last. Give the labels in the order specified.
Ans: B, C, D, A
(B: 7.64, C: 7.37, D: 6.80, A: 6.55)
